Quick reference for inhibition at 5 µM among some compounds
Molecular target: AXL (Homo sapiens)
Sequence (P30530 26-894): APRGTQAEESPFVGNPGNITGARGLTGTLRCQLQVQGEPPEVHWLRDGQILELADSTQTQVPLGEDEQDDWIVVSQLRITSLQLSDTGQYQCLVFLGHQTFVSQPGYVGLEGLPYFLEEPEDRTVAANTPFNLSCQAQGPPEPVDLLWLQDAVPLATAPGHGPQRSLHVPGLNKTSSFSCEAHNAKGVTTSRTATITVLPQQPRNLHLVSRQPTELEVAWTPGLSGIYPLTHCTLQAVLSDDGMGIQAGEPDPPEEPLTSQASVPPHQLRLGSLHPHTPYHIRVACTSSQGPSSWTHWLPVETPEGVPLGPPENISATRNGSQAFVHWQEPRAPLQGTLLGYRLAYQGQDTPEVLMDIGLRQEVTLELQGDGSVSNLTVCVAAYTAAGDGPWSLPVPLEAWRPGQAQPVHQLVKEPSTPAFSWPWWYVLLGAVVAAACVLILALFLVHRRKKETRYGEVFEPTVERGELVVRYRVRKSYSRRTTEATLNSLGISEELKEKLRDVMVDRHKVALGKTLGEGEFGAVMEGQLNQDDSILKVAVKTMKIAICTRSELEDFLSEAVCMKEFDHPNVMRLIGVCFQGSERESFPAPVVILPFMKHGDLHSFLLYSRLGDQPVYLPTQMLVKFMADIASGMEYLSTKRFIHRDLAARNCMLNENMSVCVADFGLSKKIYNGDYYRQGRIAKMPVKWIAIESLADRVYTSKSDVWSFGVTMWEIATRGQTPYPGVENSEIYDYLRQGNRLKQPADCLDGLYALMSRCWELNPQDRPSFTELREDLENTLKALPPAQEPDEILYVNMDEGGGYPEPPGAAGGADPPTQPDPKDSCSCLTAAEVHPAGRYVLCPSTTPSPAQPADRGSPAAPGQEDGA
Experiment: Kinase panel (mobility shift)
Assay type: biochemical

Use these answered entries as a reference point.
CSc1nc(C(=O)Nc2ccc(Oc3ccnc(C(=O)NC4COC4)c3)c(F)c2)c(-c2ccc(F)s2)o1; < 50%
CNC(=O)c1cc(Oc2ccc(NC(=O)c3nc(SC)oc3-c3ccc(F)cc3F)cc2F)ccn1; 50 to 79%
CSc1nc(C(=O)Nc2ccc(Oc3ccnc(C(=O)NCCN(C)C)c3)c(F)c2)c(-c2ccc(F)cc2)o1; < 50%
CNC(=O)c1cc(Oc2ccc(NC(=O)c3nc(SC)oc3-c3ccc(F)cc3F)cc2)ccn1; 80 to 89%
CNC(=O)c1cc(Oc2ccc(NC(=O)c3nc(SC)oc3-c3ccc(Cl)s3)cc2)ccn1; < 50%

In: Record request: inhibition at 5 µM value, item `CNC(=O)c1cc(Oc2ccc(NC(=O)c3nc(OCC(F)(F)F)oc3-c3ccc(F)cc3)cc2F)ccn1`
Out: 80 to 89%

In: Cool, now `CNC(=O)c1cc(Oc2ccc(NC(=O)c3nc(SC)oc3-c3ccc(F)cc3Cl)cc2)ccn1`
Out: 80 to 89%

###

Molecular target: MUSK (Homo sapiens, UniProt O15146)
Sequence (O15146 24-869, species assumed): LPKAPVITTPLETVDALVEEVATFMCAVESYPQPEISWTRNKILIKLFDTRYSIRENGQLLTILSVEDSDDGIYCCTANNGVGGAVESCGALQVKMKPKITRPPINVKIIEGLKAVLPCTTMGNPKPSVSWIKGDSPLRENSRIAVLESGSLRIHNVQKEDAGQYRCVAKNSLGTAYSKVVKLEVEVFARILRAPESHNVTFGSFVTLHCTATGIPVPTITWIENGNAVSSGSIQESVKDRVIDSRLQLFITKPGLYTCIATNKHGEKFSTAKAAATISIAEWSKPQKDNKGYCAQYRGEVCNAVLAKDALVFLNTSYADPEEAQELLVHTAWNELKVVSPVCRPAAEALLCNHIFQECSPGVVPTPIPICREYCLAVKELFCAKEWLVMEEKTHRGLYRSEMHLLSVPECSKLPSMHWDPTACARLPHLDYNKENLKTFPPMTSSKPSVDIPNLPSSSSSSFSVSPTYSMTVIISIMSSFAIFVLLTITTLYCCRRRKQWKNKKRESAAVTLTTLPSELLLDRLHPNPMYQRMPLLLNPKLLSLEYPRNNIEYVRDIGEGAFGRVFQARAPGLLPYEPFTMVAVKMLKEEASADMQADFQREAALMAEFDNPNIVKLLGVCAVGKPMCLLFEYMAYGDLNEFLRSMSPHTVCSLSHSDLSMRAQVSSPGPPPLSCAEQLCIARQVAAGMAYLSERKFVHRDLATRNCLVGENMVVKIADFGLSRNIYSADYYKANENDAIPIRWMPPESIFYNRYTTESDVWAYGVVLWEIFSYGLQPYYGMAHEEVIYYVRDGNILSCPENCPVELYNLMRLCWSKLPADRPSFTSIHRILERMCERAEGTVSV
Experiment: Kinase panel (mobility shift)
Type: biochemical
Quick reference for inhibition at 5 µM among some compounds

Use these answered entries as a reference point.
COc1nc(C(=O)Nc2ccc(Oc3ccnc(C(=O)NCC(F)(F)F)c3)c(F)c2)c(-c2ccc(F)cc2)o1 [Compound 43]; < 50%
CNC(=O)c1cc(Oc2ccc(NC(=O)c3nc(SC)oc3-c3ccc(F)cc3Cl)cc2)ccn1 [Compound 3]; 50 to 79%
CNC(=O)c1cc(Oc2ccc(NC(=O)c3nc(NC)oc3-c3ccc(F)cc3)cc2F)ccn1 [Compound 14]; 50 to 79%

In: Record request: inhibition at 5 µM value, item CNC(=O)c1cc(Oc2ccc(NC(=O)c3nc(SC)oc3-c3ccc(F)s3)cc2F)ccn1 [Compound 16]
Out: < 50%

###

Molecular target: KIT (Homo sapiens)
Sequence (P10721 26-976, species assumed): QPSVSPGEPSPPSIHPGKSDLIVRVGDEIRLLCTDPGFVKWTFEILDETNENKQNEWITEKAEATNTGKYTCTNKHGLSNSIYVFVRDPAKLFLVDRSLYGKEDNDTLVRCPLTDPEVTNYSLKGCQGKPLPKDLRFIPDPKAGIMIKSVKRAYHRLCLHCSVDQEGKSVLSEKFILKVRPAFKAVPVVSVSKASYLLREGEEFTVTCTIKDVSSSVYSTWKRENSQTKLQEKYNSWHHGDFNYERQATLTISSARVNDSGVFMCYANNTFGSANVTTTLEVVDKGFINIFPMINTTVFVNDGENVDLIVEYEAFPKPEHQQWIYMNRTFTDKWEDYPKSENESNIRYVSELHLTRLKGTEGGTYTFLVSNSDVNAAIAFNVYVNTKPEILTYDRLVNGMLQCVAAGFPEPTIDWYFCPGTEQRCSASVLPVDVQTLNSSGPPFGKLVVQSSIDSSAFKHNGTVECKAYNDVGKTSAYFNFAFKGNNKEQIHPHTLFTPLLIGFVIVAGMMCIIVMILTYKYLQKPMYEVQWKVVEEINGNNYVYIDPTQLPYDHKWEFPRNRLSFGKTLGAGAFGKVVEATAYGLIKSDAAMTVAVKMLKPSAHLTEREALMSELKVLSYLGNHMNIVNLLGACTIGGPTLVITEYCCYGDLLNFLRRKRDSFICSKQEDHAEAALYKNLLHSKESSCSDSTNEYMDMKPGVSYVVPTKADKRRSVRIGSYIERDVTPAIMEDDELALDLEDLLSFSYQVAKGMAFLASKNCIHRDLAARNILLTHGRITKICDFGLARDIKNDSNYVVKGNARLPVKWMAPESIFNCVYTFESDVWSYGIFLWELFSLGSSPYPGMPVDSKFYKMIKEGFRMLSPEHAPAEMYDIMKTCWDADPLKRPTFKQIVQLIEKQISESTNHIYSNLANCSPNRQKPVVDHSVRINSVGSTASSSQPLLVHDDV
Assay: Kinase panel (mobility shift)
Type: biochemical
MEASUREMENT_NAME: inhibition at 5 µM

Use these answered entries as a reference point.
CNC(=O)c1cc(Oc2ccc(NC(=O)c3nc(OC)oc3-c3ccc(F)s3)cc2F)ccn1; < 50%
CNC(=O)c1ccc(Oc2ccc(NC(=O)c3nc(Cl)oc3-c3ccc(F)cc3)c(F)c2)cn1; < 50%
COc1nc(C(=O)Nc2ccc(Oc3ccnc(C(=O)NC4COC4)c3)c(F)c2)c(-c2ccc(F)cc2)o1; < 50%
CSc1nc(C(=O)Nc2ccc(Oc3ccnc(-c4cnn(C)c4)c3)c(F)c2)c(-c2ccc(F)cc2)o1; 80 to 89%
CSc1nc(C(=O)Nc2ccc(Oc3cc4cnn(C)c4cc3Br)c(F)c2)c(-c2ccc(F)cc2)o1; < 50%

Please find the next molecule below.
In: Record request: inhibition at 5 µM value, item `[2H]C([2H])([2H])NC(=O)c1cc(Oc2ccc(NC(=O)c3nc(SC)oc3-c3ccc(F)s3)cc2F)ccn1`
Out: < 50%

###

Molecular target: TYRO3 (Homo sapiens, UniProt Q06418)
Sequence (Q06418 41-890, species assumed): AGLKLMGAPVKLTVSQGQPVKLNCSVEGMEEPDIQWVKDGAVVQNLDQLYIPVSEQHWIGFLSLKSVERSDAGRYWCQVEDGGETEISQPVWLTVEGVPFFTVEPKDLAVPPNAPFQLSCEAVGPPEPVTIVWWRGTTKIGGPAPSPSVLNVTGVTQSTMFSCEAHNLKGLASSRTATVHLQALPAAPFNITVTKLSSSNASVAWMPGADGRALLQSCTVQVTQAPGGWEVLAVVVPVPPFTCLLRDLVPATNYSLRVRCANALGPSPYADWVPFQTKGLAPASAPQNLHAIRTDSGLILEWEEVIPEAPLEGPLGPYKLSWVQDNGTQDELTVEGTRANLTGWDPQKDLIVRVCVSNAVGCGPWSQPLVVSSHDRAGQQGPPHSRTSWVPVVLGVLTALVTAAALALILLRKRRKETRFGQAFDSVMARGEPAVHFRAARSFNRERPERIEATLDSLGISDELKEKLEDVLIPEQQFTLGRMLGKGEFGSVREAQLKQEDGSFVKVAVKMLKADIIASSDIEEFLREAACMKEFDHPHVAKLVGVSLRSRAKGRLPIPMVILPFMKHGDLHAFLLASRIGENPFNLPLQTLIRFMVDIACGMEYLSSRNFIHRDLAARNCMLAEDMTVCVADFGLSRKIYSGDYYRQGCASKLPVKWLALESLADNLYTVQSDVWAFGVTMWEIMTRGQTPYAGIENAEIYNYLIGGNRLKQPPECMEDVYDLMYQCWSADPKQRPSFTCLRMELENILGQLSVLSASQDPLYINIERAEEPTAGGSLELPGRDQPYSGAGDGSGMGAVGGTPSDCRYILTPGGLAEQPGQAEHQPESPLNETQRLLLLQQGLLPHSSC
Test: Kinase panel (mobility shift)
Type: biochemical
MEASUREMENT_NAME: inhibition at 5 µM

In: Record request: inhibition at 5 µM value, item CSc1nc(C(=O)Nc2ccc(Oc3ccnc(N)c3Cl)c(F)c2)c(-c2ccc(F)cc2)o1 [Compound 1]
Out: 50 to 79%

In: Cool, now CNC(=O)c1cc(Oc2ccc(NC(=O)c3nc(C4CC4)oc3-c3ccc(F)cc3)cc2F)ccn1 [Compound 26]
Out: 90 to 94%

In: Cool, now CSc1nc(C(=O)Nc2ccc(Oc3ccnc(C(=O)NCCN(C)C)c3)c(F)c2)c(-c2ccc(F)cc2)o1 [Compound 41]
Out: 50 to 79%

In: Cool, now [2H]C([2H])([2H])NC(=O)c1cc(Oc2ccc(NC(=O)c3nc(SC)oc3-c3ccc(F)s3)cc2F)ccn1 [Compound 35]
Out: 50 to 79%

###

Target: RIPK2 (Homo sapiens)
Sequence (O43353 whole entry, species assumed): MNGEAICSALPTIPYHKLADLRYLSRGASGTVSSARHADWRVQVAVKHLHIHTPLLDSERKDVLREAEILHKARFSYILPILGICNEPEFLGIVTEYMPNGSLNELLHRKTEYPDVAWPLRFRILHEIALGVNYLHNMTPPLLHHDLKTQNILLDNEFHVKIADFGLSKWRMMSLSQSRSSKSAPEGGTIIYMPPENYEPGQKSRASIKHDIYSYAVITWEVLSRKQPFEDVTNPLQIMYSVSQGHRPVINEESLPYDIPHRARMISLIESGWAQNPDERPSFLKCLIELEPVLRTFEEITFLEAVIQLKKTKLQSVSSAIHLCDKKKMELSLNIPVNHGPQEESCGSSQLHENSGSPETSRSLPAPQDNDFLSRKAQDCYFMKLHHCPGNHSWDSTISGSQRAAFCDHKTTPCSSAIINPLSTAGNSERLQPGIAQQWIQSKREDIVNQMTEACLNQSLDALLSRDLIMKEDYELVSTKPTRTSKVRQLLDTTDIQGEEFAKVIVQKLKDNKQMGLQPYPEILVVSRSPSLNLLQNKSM
Experiment: Kinase panel (mobility shift)
Type: biochemical
Quick reference for inhibition at 5 µM among some compounds

CNC(=O)c1cc(Oc2ccc(NC(=O)c3nc(SC)oc3-c3ccc(F)s3)cc2F)ccn1; < 50%

In: API: value(readout= inhibition at 5 µM, system= RIPK2 (Homo sapiens), query= `CNC(=O)c1cc(Oc2ccc(NC(=O)c3nc(COC)oc3-c3ccc(F)cc3)cc2F)ccn1` )
Out: 80 to 89%

In: Cool, now `CNC(=O)c1cc(Oc2ccc(NC(=O)c3nc(SC(C)C)oc3-c3ccc(F)cc3)cc2F)ccn1`
Out: 50 to 79%

In: Cool, now `CSc1nc(C(=O)Nc2ccc(Oc3ccnc(C(=O)NC4CCN(C)CC4)c3)c(F)c2)c(-c2ccc(F)cc2)o1`
Out: 50 to 79%

In: Cool, now `CNC(=O)c1cc(Oc2ccc(NC(=O)c3nc(SC)oc3-c3ccc(F)cc3F)cc2F)ccn1`
Out: 90 to 94%

In: Cool, now `CNC(=O)c1cc(Oc2ccc(NC(=O)c3nc(NC)oc3-c3ccc(F)cc3)cc2F)ccn1`
Out: 90 to 94%

In: Cool, now `CNC(=O)c1cc(Oc2ccc(NC(=O)c3nc(OC)oc3-c3ccc(F)c(F)c3)cc2F)ccn1`
Out: 50 to 79%

###

Biological target: EPH-A6 (Homo sapiens)
Sequence (Q9UF33 23-1036): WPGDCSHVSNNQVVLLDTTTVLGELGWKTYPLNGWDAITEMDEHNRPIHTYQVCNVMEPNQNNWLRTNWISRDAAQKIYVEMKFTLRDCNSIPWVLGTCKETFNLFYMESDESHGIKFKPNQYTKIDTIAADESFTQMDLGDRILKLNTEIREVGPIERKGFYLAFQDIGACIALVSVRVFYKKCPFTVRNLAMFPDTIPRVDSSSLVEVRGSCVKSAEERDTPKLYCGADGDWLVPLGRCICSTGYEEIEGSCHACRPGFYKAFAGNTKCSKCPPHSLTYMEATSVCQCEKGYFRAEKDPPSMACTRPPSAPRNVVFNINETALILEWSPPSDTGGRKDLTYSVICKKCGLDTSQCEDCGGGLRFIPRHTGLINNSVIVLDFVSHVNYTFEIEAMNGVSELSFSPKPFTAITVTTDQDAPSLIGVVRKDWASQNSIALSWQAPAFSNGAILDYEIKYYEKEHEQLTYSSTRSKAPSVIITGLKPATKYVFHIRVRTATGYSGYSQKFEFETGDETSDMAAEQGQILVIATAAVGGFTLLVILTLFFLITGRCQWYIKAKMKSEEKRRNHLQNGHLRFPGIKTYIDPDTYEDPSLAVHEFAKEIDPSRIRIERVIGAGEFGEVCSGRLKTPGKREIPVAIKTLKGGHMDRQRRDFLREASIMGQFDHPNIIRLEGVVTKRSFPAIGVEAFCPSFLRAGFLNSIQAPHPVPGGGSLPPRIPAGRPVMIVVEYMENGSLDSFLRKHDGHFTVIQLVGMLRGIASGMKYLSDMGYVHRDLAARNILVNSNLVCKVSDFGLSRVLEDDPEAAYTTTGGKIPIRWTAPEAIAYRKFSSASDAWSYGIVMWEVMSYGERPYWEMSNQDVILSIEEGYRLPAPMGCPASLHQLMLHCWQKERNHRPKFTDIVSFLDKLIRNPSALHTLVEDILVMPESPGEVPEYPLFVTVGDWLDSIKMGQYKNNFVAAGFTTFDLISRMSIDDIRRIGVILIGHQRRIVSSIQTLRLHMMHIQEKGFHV
Experiment: Kinase panel (mobility shift)
Type: biochemical
Description: The disclosed compounds were tested for activity against a panel of 299 kinases. The target enzyme was incubated with fluorescently labeled substrate and test compounds in a standardized reaction mixture in 384 well plates. Upon termination of the reaction, samples were introduced onto microfluidic chips. […] Enzyme activity was measured by direct comparison of the fluorescence in the product and substrate peaks. […]
MEASUREMENT_NAME: inhibition at 5 µM

CNC(=O)c1cc(Oc2ccc(NC(=O)c3nc(OC)oc3-c3ccc(F)cc3)cc2F)ccn1; 90 to 94%
CNC(=O)c1cc(Oc2ccc(NC(=O)c3nc(SC)oc3-c3ccc(Cl)s3)cc2)ccn1; 50 to 79%
CNC(=O)c1cc(Oc2ccc(NC(=O)c3nc(SC)oc3-c3ccc(F)s3)cc2F)ccn1; 50 to 79%

In: Record request: inhibition at 5 µM value, item `CNC(=O)c1cc(Oc2ccc(NC(=O)c3nc(OC4CC4)oc3-c3ccc(F)cc3)cc2F)ccn1`
Out: 90 to 94%

In: Cool, now `CSc1nc(C(=O)Nc2ccc(Oc3ccnc(C(=O)NC4COC4)c3)c(F)c2)c(-c2ccc(F)c(F)c2)o1`
Out: < 50%

In: Cool, now `CNC(=O)c1cc(Oc2ccc(NC(=O)c3nc(C4CC4)oc3-c3ccc(F)cc3)cc2F)ccn1`
Out: 90 to 94%

In: Cool, now `CSc1nc(C(=O)Nc2ccc(Oc3ccnc(C(=O)NCC(F)(F)F)c3)c(F)c2)c(-c2ccc(F)cc2)o1`
Out: < 50%
